Where do these numbers come from? They come from patent US20250339569A1.

Assayed system: Fc-fusion protein of human carbonic anhydrase IX (human, UniProt Q16790 38-414)
Assay details: SPR, captured hCAIX-Fc; t1/2 category B: 5.1-15.0 min
Starred links: 1 amine or outer side, 2 acyl side, 3 side chain; linkers in the order of their positions; H or OH if unused. Positions of bridges follow the written chain, without caps; N, C: chain ends. Non-standard residues stand in square brackets, D forms with d. Primed or numbered codes have the meaning given here. *: point of attachment. Af3(MSAc) = 3-aminophenylalanine with 2-methanesulfonylacetyl on the ring amine, CS(=O)(=O)CC(=O)Nc1cccc(C[C@H](N[*:1])C(=O)[*:2])c1; APAc″ = 2-(4-(amino)piperidin-1-yl)acetic acid, NC1CCN(CC(=O)*)CC1; DOTA = O=C(O)CN1CCN(CC(=O)O)CCN(CC(=O)*)CCN(CC(=O)O)CC1; dmo = (R)-dimethylornithine (D form); mXylylene = c1cc(C[*:1])cc(C[*:2])c1; Orn(Me2) = CN(C)CCC[C@H](N)C(=O)O; AGLU′ = not defined here; APAc = not defined here
t1/2 (half-life of the complex, SPR) values for the binders below.

# annotated cases, reported t1/2 (half-life of the complex, SPR) shown
{DOTA-APAc}-VYCE[dE](AGLU′)DWLTWSC-NH2 (linker 3-12 via mXylylene; reading uncertain) [3BP-4119]
5.1 to 15 min
{DOTA-APAc″}-VYCE[dP]D[Af3(MSAc)]LTWSC-NH2 (linker 3-12 via mXylylene) [3BP-4242]
5.1 to 15 min
{DOTA-APAc}-VYC[Orn(Me2)][dP]DWLTWSC-NH2 (linker 3-12 via mXylylene; reading uncertain) [3BP-4096]
5.1 to 15 min
{DOTA-APAc}-VYCQ[dP]DWLTWSC-NH2 (linker 3-12 via mXylylene; reading uncertain) [3BP-4104]
5.1 to 15 min

// moving on: another record for t1/2 (half-life of the complex, SPR)
Quick one: t1/2 (half-life of the complex, SPR) for {DOTA-APAc}-VYCE[dmo]DWLTWSC-NH2 (linker 3-12 via mXylylene; reading uncertain) [3BP-4097] ? 5.1 to 15 min
